assayed-system: T1, 4H48-AA
T1 chain: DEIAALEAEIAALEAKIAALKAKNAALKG
assay: two-hybrid library CCmax;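 further: natural log of median RNA to DNA barcode read ratio; higher means stronger binding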
condition-info: mean of both orientations
Known interaction score of a selection of binders
endpoint-label: interaction score

> print(dat)
                                      binder     endpoint.label  observed
 1  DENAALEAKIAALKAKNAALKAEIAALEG [4H1401-AA]  interaction score     0.338
 2  DKIAALKAKNAALEAEIAALEAKIAALEG [4H2949-AA]  interaction score    -0.564
 3  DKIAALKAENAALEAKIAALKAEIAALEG [4H2729-AA]  interaction score    -0.497
 4  DKNAALKAEIAALEAKIAALKAENAALEG [4H3627-AA]  interaction score    -0.478
 5  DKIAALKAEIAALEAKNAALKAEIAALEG [4H2617-AA]  interaction score    -0.511
 6  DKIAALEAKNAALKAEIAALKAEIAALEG [4H2505-AA]  interaction score     0.908
 7  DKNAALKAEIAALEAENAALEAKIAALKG [4H3606-AA]  interaction score    -0.695
 8  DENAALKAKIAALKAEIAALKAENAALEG [4H1867-AA]  interaction score       1.5
 9  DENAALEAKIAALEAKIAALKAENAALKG [4H1324-AA]  interaction score      1.07
10  DKNAALKAKIAALEAEIAALEAENAALKG [4H3844-AA]  interaction score      1.16
11  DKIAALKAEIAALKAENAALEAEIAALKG [4H2642-AA]  interaction score    -0.661
12  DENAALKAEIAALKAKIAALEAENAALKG [4H1636-AA]  interaction score     -1.07
13  DEIAALEAKIAALKAENAALEAKIAALKG [4H342-AA]  interaction score    -0.491
14  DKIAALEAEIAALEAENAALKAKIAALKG [4H2078-AA]  interaction score     0.504

Each recorded value in this set is attributed to paper PMC10397247.
